# experimental_protocol: PAMPA test (parallel artificial membrane permeability assay)
# Format: in vitro ADME
# condition_details: phosphate buffer pH 6.8, about 200 μM, about 5 hours, room temperature, read-out: Test Example 4 membrane permeation coefficient Pe
readout_kind: Papp (×10⁻⁶ cm/s)
Enter your answer as a number in ×10⁻⁶ cm/s; do not include the unit.

Request: Form field: reported Papp of "C=CCN1CC(=O)N2[C@@H](Cc3c(F)cc(O)cc3F)C(=O)N(Cc3cccc(N4CC(N5CCN(C)C[C@@H]5C)C4)n3)C[C@@H]2N1C(=O)NCc1ccccc1"
Response: 0.89

Request: Form field: reported Papp of C=CCN1CC(=O)N2C(CN(Cc3cccc(N4CC(N5CCN(CC)[C@H](C)C5)C4)n3)C(=O)[C@@H]2Cc2ccc(O)cc2)N1C(=O)NCc1ccccc1 (stereo partly drawn)
Response: 0.91

Request: Form field: reported Papp of "C=CCN1CC(=O)N2[C@@H](Cc3ccc(O)cc3F)C(=O)N(Cc3cccc(N4CC(N5CCN(CC)CC5)C4)n3)C[C@@H]2N1C(=O)NCc1ccccc1"
Response: 2.01

###

# experimental_protocol: Evaluation of metabolic stability
# Assay type: in vitro ADME, human
# condition_details: 0.2 mg/mL HLM, 0.1 μM test substance, 15 minutes at 37° C., with vs without NADPH production
readout_kind: Test Example 2 residual ratio of the test substance
A complete answer gives the number followed by the unit.

Request: Form field: reported Test Example 2 residual ratio of the test substance of C=CCN1CC(=O)N2[C@@H](Cc3ccc(O)cc3F)C(=O)N(Cc3ccc(F)c(N4CC(N5CCC(N(C)C)CC5)C4)n3)C[C@@H]2N1C(=O)NCc1ccccc1 [Reference Example 3]
Response: 50%

Request: Form field: reported Test Example 2 residual ratio of the test substance of C=CCN1CC(=O)N2C(CN(Cc3cccc(N4CC(N5CCN(CC)[C@H](C)C5)C4)n3)C(=O)[C@@H]2Cc2ccc(O)cc2)N1C(=O)NCc1ccccc1 (some centres unmarked)
Response: 30%

Request: Form field: reported Test Example 2 residual ratio of the test substance of "C=CCN1CC(=O)N2[C@@H](Cc3ccc(O)cc3F)C(=O)N(Cc3cccc(N4CC(N5CCN(CC)CC5)C4)n3)C[C@@H]2N1C(=O)NCc1ccccc1"
Response: 47%

Request: Form field: reported Test Example 2 residual ratio of the test substance of "C=CCN1CC(=O)N2[C@@H](Cc3ccc(O)cc3F)C(=O)N(Cc3cccc(N4CC(N5CCN(C)C[C@@H]5C)C4)n3)C[C@@H]2N1C(=O)NCc1ccccc1"
Response: 45%

Request: Form field: reported Test Example 2 residual ratio of the test substance of C=CCN1CC(=O)N2[C@@H](Cc3ccc(O)cc3)C(=O)N(Cc3cccnc3N3CCC(N4CCCC4)CC3)C[C@@H]2N1C(=O)NCc1ccccc1 [Comparative Example 1, reference compound]
Response: 52.9%

Request: Form field: reported Test Example 2 residual ratio of the test substance of C=CCN1CC(=O)N2[C@@H](Cc3ccc(O)cc3F)C(=O)N(Cc3cccc(N4CC(N5CC[C@@H](N(C)C)C5)C4)n3)C[C@@H]2N1C(=O)NCc1ccccc1 [Reference Example 2]
Response: 51%

Request: Form field: reported Test Example 2 residual ratio of the test substance of "C=CCN1CC(=O)N2[C@@H](Cc3ccc(O)cc3)C(=O)N(Cc3cccc(N4CC(N5CCN(CC)CC5)C4)n3)C[C@@H]2N1C(=O)NCc1ccccc1"
Response: 58%

Request: Form field: reported Test Example 2 residual ratio of the test substance of "C=CCN1CC(=O)N2[C@@H](Cc3ccc(O)cc3)C(=O)N(Cc3ccc(F)c(N4CC(N5CCN(C)CC5)C4)n3)C[C@@H]2N1C(=O)NCc1ccccc1"
Response: 40%

Request: Form field: reported Test Example 2 residual ratio of the test substance of "C=CCN1CC(=O)N2[C@@H](Cc3ccc(O)cc3F)C(=O)N(Cc3cccc(N4CC(N5CCN(C)[C@H](C)C5)C4)n3)C[C@@H]2N1C(=O)NCc1ccccc1"
Response: 39%

Request: Form field: reported Test Example 2 residual ratio of the test substance of "C=CCN1CC(=O)N2[C@@H](Cc3c(F)cc(O)cc3F)C(=O)N(Cc3cccc(N4CC(N5CCN(CC)[C@@H](C)C5)C4)n3)C[C@@H]2N1C(=O)NCc1ccccc1"
Response: 43%

Request: Form field: reported Test Example 2 residual ratio of the test substance of "C=CCN1CC(=O)N2[C@@H](Cc3c(F)cc(O)cc3F)C(=O)N(Cc3cccc(N4CC(N5CCN(C(C)C)CC5)C4)n3)C[C@@H]2N1C(=O)NCc1ccccc1"
Response: 38%
